TESTED ON: Human CB1 receptor (hCB1) (Homo sapiens, UniProt P21554)
Construct: purchased Receptor Biology
Sequence (P21554 whole entry): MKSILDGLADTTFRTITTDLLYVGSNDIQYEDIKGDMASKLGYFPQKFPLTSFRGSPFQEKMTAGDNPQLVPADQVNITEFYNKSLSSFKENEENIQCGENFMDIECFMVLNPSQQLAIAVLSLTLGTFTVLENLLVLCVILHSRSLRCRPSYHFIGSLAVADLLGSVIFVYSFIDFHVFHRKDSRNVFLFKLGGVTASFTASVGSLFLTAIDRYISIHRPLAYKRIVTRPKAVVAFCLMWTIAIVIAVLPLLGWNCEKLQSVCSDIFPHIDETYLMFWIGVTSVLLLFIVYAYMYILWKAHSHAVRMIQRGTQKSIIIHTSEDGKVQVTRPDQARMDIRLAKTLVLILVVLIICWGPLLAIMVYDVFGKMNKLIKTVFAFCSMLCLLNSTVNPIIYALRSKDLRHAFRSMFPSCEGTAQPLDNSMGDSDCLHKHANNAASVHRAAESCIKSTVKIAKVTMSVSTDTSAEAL
MEASUREMENT DESCRIPTION: hCB1 GTPγS binding
Assay type: biochemical
CONDITION DETAILS: maximal stimulated binding determined with 10 μM Win 55,212-2
Method: hCB1 and hCB2 GTPγS Binding Human CB1 receptor from Receptor Biology (hCB1) or human CB2 receptor membranes (BioSignal) are thawed at 37° C., passed 3 times through a 25-gauge blunt-end needle and diluted in the GTPγS binding buffer (50 mM Hepes, 20 mM NaOH, 100 mM NaCl, 1 mM EDTA, 5 mM MgCl2, pH 7.4, 0.1% BSA). […] The basal and maximal stimulated binding is determined in absence and presence of 1 μM (hCB2) or 10 μM (hCB1) Win 55, 212-2 respectively. […]
Give Emax for every item shown.
Express the result in % but write the number alone.

Lookup: // returns reported Emax for input Cn1c2c(c3cc(C(=O)N4CCC[C@H](C(=O)NC5CC5)C4)ccc31)CC(C1CCOCC1)CC2 (stereo partly drawn)
Found: 118

Lookup: // returns reported Emax for input Cn1c2c(c3cc(C(=O)N4CCCC(C(=O)NC5CC5)C4)ccc31)CC(C1CCOCC1)CC2 (stereo not drawn)
Found: 115

Lookup: // returns reported Emax for input CCN(CCCC(=O)NC1CC1)C(=O)c1ccc2c(c1)c1c(n2C)CCC(C2CCOCC2)C1 (stereo not drawn)
Found: 116

---

Give pEC50 for every item shown.
TESTED ON: Human CB1 receptor (hCB1) (Homo sapiens, UniProt P21554)
Construct: purchased Receptor Biology
MEASUREMENT DESCRIPTION: hCB1 GTPγS binding
Assay type: biochemical
CONDITION DETAILS: hCB1 membranes, GTPγ35S, 10-point dose-response
pEC50: −log10 of the molar value.

Lookup: // returns reported pEC50 for input CCNC(=O)CN(CC)C(=O)c1ccc2c(c1)c1c(n2CC(C)(C)O)CCC(C2CCOCC2)C1 (stereo not drawn)
Found: < 4.52

Lookup: // returns reported pEC50 for input Cn1c2c(c3cc(C(=O)N4CCC(NC(=O)C5CC5)CC4)ccc31)CC(C1CCOCC1)CC2 (stereo not drawn)
Found: < 4.52

Lookup: // returns reported pEC50 for input CCNC(=O)CN(CC)C(=O)c1ccc2c(c1)c1c(n2CCO)CCC(C2CCOCC2)C1 (stereo not drawn)
Found: < 5.48

Lookup: // returns reported pEC50 for input CCNC(=O)CN(CC)C(=O)c1ccc2c(c1)c1c(n2C(=O)N(C)C)CCC(C2CCOCC2)C1 (stereo not drawn)
Found: < 4.52

Lookup: // returns reported pEC50 for input CCNC(=O)CN(CC)C(=O)c1ccc2c(c1)c1c(n2CC(=O)NC)CCC(C2CCOCC2)C1 (stereo not drawn)
Found: < 4.52

Lookup: // returns reported pEC50 for input CCNC(=O)CN(CC)C(=O)c1ccc2c(c1)c1c(n2CC(=O)N(CC)CC)CCC(C2CCOCC2)C1 (stereo not drawn)
Found: < 5.00

---

System: Human CB1 receptor (hCB1) (Homo sapiens) | Read-out: pKi
In textbook form, pKi equals minus log to base ten of the concentration in mol/L.

Lookup: // returns reported pKi for input Cn1c2c(c3cc(C(=O)N4CC[C@H](CC(=O)NC5CC5)C4)ccc31)CC(C1CCOCC1)CC2 (some centres unmarked)
Found: 7.45

Lookup: // returns reported pKi for input CCN(CCCC(=O)NCCF)C(=O)c1ccc2c(c1)c1c(n2C)CCC(C2CCOCC2)C1 (centres unmarked)
Found: 8.00

Lookup: // returns reported pKi for input CCN(CC(=O)NC)C(=O)c1ccc2c(c1)c1c(n2C)CCC(C2CCOCC2)C1 (centres unmarked)
Found: 6.85

Lookup: // returns reported pKi for input CCNC(=O)CN(CC)C(=O)c1ccc2c(c1)c1c(n2C)CCC(C2CCOCC2)C1 (centres unmarked)
Found: 7.76
